Where do the numbers come from? From patent US20160289321A1.

- tgt: Cyno IL-17A (cynomolgus, UniProt A0A2K5TTB0 24-155)
- Sequence (A0A2K5TTB0 entry or part of it): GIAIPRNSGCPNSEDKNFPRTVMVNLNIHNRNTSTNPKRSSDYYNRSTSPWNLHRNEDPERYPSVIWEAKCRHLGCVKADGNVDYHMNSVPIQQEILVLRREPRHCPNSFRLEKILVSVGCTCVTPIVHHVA
- procedure_summary: cell-based or functional assay
# Cyno IL-17A (bioassay IC50) per record follows

{"columns": ["binder", "Cyno IL-17A (bioassay IC50)"],
 "data": [
  ["Hu049-19 (antibody, V domains shown, Humanized mAb049) VH: EVQLVQSGAEVKKPGASVKVSCKASGYTFTDYEVHWVRQAPGQGLEWIGVIDPGTGGVAYNQKFEGRVTMTADTSTSTAYMELRSLRSDDTAVYYCTRYSLFYGSSPYAMDYWGQGTLVTVSS VL: EIVLTQSPDFQSVTPKEKVTITCSASSSVNYMHWFQQKPDQSPKLWIYRTSNLASGVPSRFSGSGSGTDYTLTINSLEAEDAATYYCQQRSSYPWTFGQGTKLEIKR", "0.039 nM"]
]}

Report Cyno IL-17A (bioassay IC50) for Hu049-18 (antibody, V domains shown, Humanized mAb049) VH: EVQLVQSGAEVKKPGASVKVSCKASGYTFTDYEVHWVRQAPGQGLEWMGVIDPGTGGVAYNQKFEGRVTMTADTSTSTAYMELRSLRSDDTAVYYCTRYSLFYGSSPYAMDYWGQGTLVTVSS VL: EIVLTQSPDFQSVTPKEKVTITCSASSSVNYMHWFQQKPDQSPKLWIYRTSNLASGVPSRFSGSGSGTDYTLTINSLEAEDAATYYCQQRSSYPWTFGQGTKLEIKR please.
0.033 nM

What do you have for Hu049-17 (antibody, V domains shown, Humanized mAb049) VH: EVQLVQSGAEVKKPGASVKVSCKASGYTFTDYEVHWVRQAPGQGLEWMGVIDPGTGGVAYNQKFEGRVTMTTDTSTSTAYMELRSLRSDDTAVYYCTRYSLFYGSSPYAMDYWGQGTLVTVSS VL: EIVLTQSPDFQSVTPKEKVTITCSASSSVNYMHWFQQKPDQSPKLWIYRTSNLASGVPSRFSGSGSGTDYTLTINSLEAEDAATYYCQQRSSYPWTFGQGTKLEIKR ?
0.03 nM

What do you have for Hu049-20 (antibody, V domains shown) VH: EVQLVQSGAEVKKPGASVKVSCKASGYTFTDYEVHWVRQAPGQGLEWIGVIDPGTGGVAYNQKFEGRATLTADDSTNTAYMELRSLRSDDTAVYYCTRYSLFYGSSPYAMDYWGQGTLVTVSS VL: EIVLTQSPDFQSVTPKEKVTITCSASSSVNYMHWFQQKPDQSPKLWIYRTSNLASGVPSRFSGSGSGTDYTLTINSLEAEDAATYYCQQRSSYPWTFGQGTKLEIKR ?
0.028 nM
